Reference for the values: PubChem BioAssay AID488969

For each record, write down the corresponding z-score.
Target: Metabotropic glutamate receptor 8 (Rattus norvegicus) (UniProt P70579)
Sequence (P70579 whole entry, looked up): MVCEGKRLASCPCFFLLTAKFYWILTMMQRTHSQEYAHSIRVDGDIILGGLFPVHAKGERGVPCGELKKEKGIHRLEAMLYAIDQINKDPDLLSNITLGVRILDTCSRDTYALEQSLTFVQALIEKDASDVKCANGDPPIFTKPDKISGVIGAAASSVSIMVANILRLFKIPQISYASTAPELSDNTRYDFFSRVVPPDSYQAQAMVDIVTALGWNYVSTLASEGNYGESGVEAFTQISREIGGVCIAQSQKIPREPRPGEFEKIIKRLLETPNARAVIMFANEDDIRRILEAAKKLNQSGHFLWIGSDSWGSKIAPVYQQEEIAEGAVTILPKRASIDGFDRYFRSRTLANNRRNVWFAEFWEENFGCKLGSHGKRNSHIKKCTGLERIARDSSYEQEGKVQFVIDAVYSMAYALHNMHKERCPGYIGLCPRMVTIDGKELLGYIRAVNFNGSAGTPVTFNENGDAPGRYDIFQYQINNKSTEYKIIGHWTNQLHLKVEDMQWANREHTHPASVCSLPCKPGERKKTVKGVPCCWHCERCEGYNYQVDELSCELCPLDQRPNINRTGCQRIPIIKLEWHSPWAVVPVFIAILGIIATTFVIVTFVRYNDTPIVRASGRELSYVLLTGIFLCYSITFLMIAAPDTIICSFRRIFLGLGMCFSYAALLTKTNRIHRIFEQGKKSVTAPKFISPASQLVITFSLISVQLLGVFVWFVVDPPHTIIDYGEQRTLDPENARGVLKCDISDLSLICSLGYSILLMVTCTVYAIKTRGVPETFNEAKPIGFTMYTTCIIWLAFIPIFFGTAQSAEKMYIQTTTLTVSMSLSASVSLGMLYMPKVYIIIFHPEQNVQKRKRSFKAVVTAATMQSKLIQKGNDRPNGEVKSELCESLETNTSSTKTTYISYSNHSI
Assay: mGluR8 Gi/Go-coupled signaling modulation – cell-based, rat, thallium flux, HTS, primary screen (AID 488969)
Conditions: HEK293 rat mGluR8, GIRK thallium flux, FluoZin2; at 10 µM; stronger effect = higher value; submaximal glutamate (EC20) added with thallium
Over roughly 110,000 compounds, “z-score” has its median near -0.1; the highest 2% begin near 2. This excerpt belongs to a sample that is enriched for the highest values.
Answers are plain numbers.

Completed entries (count: 3):
[[record]]
compound = "O=C(Cn1c(C(F)(F)F)nc2ccccc21)OCC(=O)c1c[nH]c2ccccc12"
measurement_name = "z-score"
observed = -0.594

[[record]]
compound = "CN1CCN(CCC(=O)Nc2ccc3c(c2)OCO3)CC1"
measurement_name = "z-score"
observed = 0.213

[[record]]
compound = "COc1ccc(-c2csc(NC(=O)C3CCCCN3S(=O)(=O)c3ccccc3)n2)cc1 (centres undefined)"
measurement_name = "z-score"
observed = 1.82


Batch lookup, z-score per entry.
1. Cc1cccc2cc(CN(Cc3cccs3)C(=S)NCC3CCCO3)c(=O)[nH]c12 (centres undefined)
2. O=C(Cc1ccccc1)Nc1ccc(N2CCOCC2)cc1N1CCOCC1
3. Cc1cc(C)cc(-n2c(SC(C)C(=O)NCc3ccc4c(c3)OCO4)nc3ccccc3c2=O)c1 (centres undefined)
4. O=C1CN(C(=O)CSc2nc3cc(Cl)ccc3c(=O)n2Cc2ccccc2)c2ccccc2N1
5. CCn1c(SCC(=O)c2cc(C)n(C)c2C)nnc1-c1ccccc1

Solution:
1. -0.229
2. -0.544
3. -0.19
4. 7.11
5. 0.0656

Batch lookup, z-score per entry.
1. O=C(Nc1cccc(Cl)c1)Nc1ccc(Cl)cn1
2. C(=C\c1cccc2ccccc12)/c1nnc(-c2cccs2)o1
3. CCc1ccc(-c2ccc(C(=O)C(F)(F)F)[nH]2)cc1

Solution:
0.563
-0.201
-0.0177

Batch lookup, z-score per entry.
1. COc1ccc(/C=N/NC(=S)NC2CCS(=O)(=O)C2)cc1 (centres undefined)
2. CCCC(=O)Nc1nnc(SCC)s1
3. CCSc1nnc(NC(=O)NC(CC)(C(F)(F)F)C(F)(F)F)s1

Solution:
-0.113
0.0928
3.86

---

Target: Metabotropic glutamate receptor 8 (Rattus norvegicus) (UniProt P70579)
Assay: mGluR8 Gi/Go-coupled signaling modulation – cell-based, rat, thallium flux, HTS, primary screen (AID 488969)
Settings: HEK293 rat mGluR8, GIRK (G protein-gated inwardly rectifying potassium channel) thallium flux, FluoZin2; at 10 µM; stronger effect = higher value; submaximal glutamate (EC20) added with thallium
In all, about 110,000 compounds were measured (“z-score”: median about -0.1, highest 2% from about 2 on). This excerpt belongs to a sample that is enriched for the highest values.
For each record, write down the corresponding z-score.
Answers are plain numbers.

Batch lookup, z-score per entry.
1. Cc1ccc(-c2csc(NC(=S)NC(=O)c3cccs3)n2)cc1
2. CCNC(=O)CSc1nc2cc([N+](=O)[O-])ccc2n1-c1cccc(C(F)(F)F)c1
3. O=C(Cc1cccs1)Nc1nc2c(ccc3ccccc32)s1
4. COc1cc(NC2=Nc3cccc4cccc2c34)cc(OC)c1OC
5. COc1ccc(C)cc1S(=O)(=O)Nc1cccc(Cl)c1Cl

Solution:
1: -0.267; 2: -0.0324; 3: 0.34; 4: -0.385; 5: 3.68

Batch lookup, z-score per entry.
1. Cc1cccc2cc(C(c3nnnn3C(C)(C)C)N3CCN(C(=O)c4ccco4)CC3)c(=O)[nH]c12 (stereo unspecified)
2. O=C(CC1NCCNC1=O)OCCCc1ccccc1 (stereo unspecified)
3. COc1ccc(NC2=Nc3cccc4cccc2c34)cc1
4. Cc1ccc2nc(NC(=S)NC(=O)c3cccs3)sc2c1
5. O=C(O)CCCCNS(=O)(=O)c1ccc(Cl)c(C(F)(F)F)c1

Solution:
[0.516, 1.22, -0.54, 4.64, -0.602]

Exercise: Find the measured z-score of `C=CCNC(=O)NC(=O)CSc1nc2cc([N+](=O)[O-])ccc2n1-c1cccc(C(F)(F)F)c1` with Metabotropic glutamate receptor 8 (Rattus norvegicus) (UniProt P70579) as test system.
Solution: 2.75
